target.under.test: Mas-related G-protein coupled receptor member X1 (Homo sapiens)
assay.summary: blockade of BAM8-22-evoked MrgX1 calcium response – HEK293 cells, Fluo-4 calcium flux, primary screen (AID 588676)
condition.set: Fluo-4, BAM8-22 antagonism, at 10 µM
The campaign covered roughly 310,000 compounds. About 3,900 (1.3%) were called active.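 Rule for the calls: active = calcium-response B-score plate-corrected more than 3 library SD below zero, starting fluorescence within 5 deviations, no agonist response on first addition; inactive = the rest.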 The entries come from a sample that favours actives as a whole.
Possible outcomes: y = active, n = inactive

In [3]: df
Out[3]:
                                    molecule  answer_label
 0      O=C(Cn1ccc([N+](=O)[O-])n1)NCc1cccs1             n
 1  COc1ccc2cc(-c3[nH]ncc3CNCCn3nc(C)cc3C)ccc2c1             n
 2    Clc1ccc(CSc2nnc3c(n2)[nH]c2ccccc23)cc1             n
 3   COc1ccc2[nH]c3nc(SCC(=O)NC4CC4)nnc3c2c1             n
 4  Cc1ccc2oc(=O)c3cnn(CC(=O)N(Cc4ccco4)C4CCCCC4)c3c2c1             n
 5  O=[N+]([O-])c1ccc(F)cc1Oc1nc(-c2cccnc2)nc2ccccc12             n
 6  CCC(C(=O)NC1CCCCC1)N(C(=O)c1snc(C(N)=O)c1N)c1ccc(OC)cc1OC (stereo not drawn)             n
 7  O=C(NCC(=O)N(Cc1cccs1)C(C(=O)NC1CCCCC1)c1ccco1)c1cccs1 (stereo not drawn)             n
 8  O=C(c1c(F)cccc1Cl)N1CCN(S(=O)(=O)c2ccc3c(c2)OCCCO3)CC1             n
 9            CCOc1cc(-c2conc2N)cc(OCC)c1OCC             y
10  O=[N+]([O-])c1ccc(Oc2ccc(F)cc2Br)c2ccncc12             n
11  Cn1c(NC(=O)c2ccco2)c(-c2ccccc2Cl)c(=O)c2ccccc21             n
12      O=C(CCn1ccc([N+](=O)[O-])n1)Nc1nccs1             y
13    COc1ccccc1OCc1nnc(SCC(N)=O)n1-c1ccccc1             n
14      CCCNC(=O)CSc1nc(Cc2ccccc2)nc2ccccc12             n
15     CN1CCCN(S(=O)(=O)c2ccc3c(c2)OCCO3)CC1             n
16  CO/N=C(/CS(=O)(=O)c1ccc(Br)cc1)c1ccc(OC)cc1             n
17  NC(=O)NC(=O)C(OC(=O)CCNS(=O)(=O)c1ccccc1)c1ccccc1 (stereo not drawn)             n
18  CCCCCC(=O)N1CCN(S(=O)(=O)c2ccc3c(c2)OCCCO3)CC1             y
19  CCOC(=O)CNC(=O)CSc1ncccc1-c1nc2ccccc2[nH]1             n
20      COc1ccccc1Oc1nc(-c2cccnc2)nc2ccccc12             y
21  Cc1cccc(NC(=O)Cn2c(=O)n(Cc3ccccc3)c(=O)c3c(C)c(C)sc32)c1             n
22  FC(F)(F)c1cccc(-c2cc3ccccc3nc2N2CCCC2)c1             n
23  COCCCN(C(=O)Cn1ncc2c(=O)oc3ccc(C)cc3c21)C(C)c1ccncc1 (stereo not drawn)             y
24  Cc1coc2c1c(C)cc1oc(=O)c(CC(=O)NCC(=O)N[C@H](C(=O)O)C(C)C)c(C)c12             n
25        O=C(Nc1nc2ccccc2s1)c1ccc2c(c1)OCO2             n
26  Cc1ccc(N(C(=O)Cc2cccs2)C2C=CS(=O)(=O)C2)cc1Cl (stereo not drawn)             n
27  N#CC1=C(N)Oc2c(ccc3cccnc23)C1c1ccncc1 (stereo not drawn)             n

----------
target.under.test: Mas-related G-protein coupled receptor member X1 (Homo sapiens)
assay.summary: blockade of BAM8-22-evoked MrgX1 calcium response – HEK293 cells, Fluo-4 calcium flux, primary screen (AID 588676)
condition.set: Fluo-4, BAM8-22 antagonism, at 10 µM
The whole screen tested about 310,000 compounds, of which about 3,900 (1.3%) were called active.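 How the source made its calls: active means calcium-response B-score plate-corrected more than 3 library SD below zero, starting fluorescence within 5 deviations, no agonist response on first addition; inactive means the rest.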 For the sample, actives were picked, then their nearest neighbours and some compounds at random.
Possible outcomes: active, inactive

>>> print(df.to_string())
                                    compound  answer_label
 0               CC1(C)Cc2cccc(OCC(N)=O)c2O1      inactive
 1  CCCN(CC(=O)Nc1ccc(C(N)=O)cc1)CC(=O)Nc1ccccc1C      inactive
 2       Cc1c(CN2CCCCC2)c(O)n(CCO)c(=O)c1C#N      inactive
 3        O=C1CCCN1CCCNC(=S)Nc1ccc(F)c(Cl)c1        active
 4  O=C(Nc1ccc(Cl)cc1)c1cc2nc(C3CC3)cc(C(F)(F)F)n2n1      inactive
 5          Cc1c(Cl)cccc1NC(=O)NCCCN1CCCC1=O      inactive
 6  CC(NC(=O)CCCC1CCCCC1)c1ccc(S(N)(=O)=O)cc1 (centres undefined)      inactive
 7          Cc1cc(Cl)ccc1NC(=S)NCCCN1CCCC1=O      inactive
 8        CC1(C)Cc2cccc(OCC(=O)Nc3nccs3)c2O1      inactive
 9      COc1cc(CCC(=O)Nc2ccncc2Cl)cc(OC)c1OC        active
10      CC1(C)Cc2cccc(OCC(=O)NCc3ccccc3)c2O1      inactive
11  CCOc1ccccc1C1CC(c2ccccc2)Nc2nc(N)nn21 (centres undefined)      inactive
12  COc1cccc(CCNC(=O)COc2cccc3c2OC(C)(C)C3)c1        active
13  CN(CC(=O)Nc1ccccc1Cl)C(=O)COc1cccc2c1OC(C)(C)C2        active
14  COc1cc(CCC(=O)N2CCN(c3ccccc3Cl)CC2)cc(OC)c1OC      inactive
15  Cc1ccc(C(=O)N2CC(=O)Nc3ccc(F)cc3C2c2ccc(F)cc2)cc1 (centres undefined)      inactive
16  COc1ccc(C2CC(c3ccc(Cl)cc3Cl)Nc3nc(N)nn32)cc1OC (centres undefined)      inactive
17  CS(=O)(=O)Nc1ccccc1N=C(c1ccccc1)c1ccccc1      inactive
18    CCN(CC)CC(=O)Nc1nn(-c2ccccc2)nc1C(N)=O        active

----------
target.under.test: Mas-related G-protein coupled receptor member X1 (Homo sapiens) (UniProt Q96LB2)
Sequence (Q96LB2 whole entry, looked up): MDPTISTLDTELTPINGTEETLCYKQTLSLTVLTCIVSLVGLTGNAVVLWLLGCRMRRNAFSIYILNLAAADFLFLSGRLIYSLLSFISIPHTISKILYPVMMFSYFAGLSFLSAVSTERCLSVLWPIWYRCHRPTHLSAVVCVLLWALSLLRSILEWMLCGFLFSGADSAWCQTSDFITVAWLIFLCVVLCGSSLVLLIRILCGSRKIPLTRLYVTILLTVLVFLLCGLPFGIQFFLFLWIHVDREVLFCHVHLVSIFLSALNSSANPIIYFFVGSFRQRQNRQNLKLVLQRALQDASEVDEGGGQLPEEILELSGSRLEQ
assay.summary: blockade of BAM8-22-evoked MrgX1 calcium response – HEK293 cells, Fluo-4 calcium flux, primary screen (AID 588676)
condition.set: Fluo-4, BAM8-22 antagonism, at 10 µM
Out of some 310,000 compounds screened, about 3,900 (1.3%) were called active.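 The calls were made as follows: active = calcium-response B-score plate-corrected more than 3 library SD below zero, starting fluorescence within 5 deviations, no agonist response on first addition; inactive = the rest.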 For the sample, actives were picked, then their nearest neighbours and some compounds at random.
Possible outcomes: active, inactive

>>> df
                                    molecule  answer_label
 0  COc1ccc(/C(O)=C2/C(=O)C(=O)N(CC3CCCO3)C2c2ccc(OC)c(OC)c2)cc1 (stereo not given)      inactive
 1  CCOc1ccc(CC(=O)Nc2ccc(S(=O)(=O)Nc3cc(C)on3)cc2)cc1OCC        active
 2  CC1(C)Cc2c(C#N)c(SCc3nc4ccccc4[nH]3)nc(N3CCOCC3)c2CO1      inactive
 3  O=C(CSc1nc2ccc([N+](=O)[O-])cc2[nH]1)c1ccc(Cl)cc1      inactive
 4                O=C(Cc1ccccn1)c1ccc(O)cc1O        active
 5  COc1cccc(-n2c(Cc3cc(=O)[nH]c(=O)[nH]3)nnc2SCC(=O)Nc2ccccc2)c1      inactive
 6  CCN1C(=O)[C@@H]2[C@@H](c3ccc(-c4ccc(OC)cc4)c(OC)c3)N3CCC[C@@]3(C(=O)OC)[C@@H]2C1=O      inactive
 7  Cc1cc(C)cc(C(=O)OCC(=O)NCCNC(=O)COC(=O)c2cc(C)cc(C)c2)c1      inactive
 8  CCN(Cc1ccccc1)S(=O)(=O)c1cc(C(=O)O)ccc1OC      inactive
 9         COC1=C(N2CCOCC2)C(=O)c2ccccc2C1=O      inactive
10  CCc1ccc(OC(C)C(=O)Nc2ccc(S(=O)(=O)Nc3cc(C)on3)cc2)cc1 (stereo not given)      inactive
11   COc1ccc(C(=O)Cc2cnn(-c3ccccc3)c2)c(O)c1      inactive
12     O=C(Cc1nc2ccccc2[nH]c1=O)c1ccc(Cl)cc1        active
13  COc1ccc(C(=O)NCCn2nc(C)cc2C)cc1OC1CCN(C(C)=O)CC1      inactive
14  Cc1cccc(-n2c(Cc3cc(=O)[nH]c(=O)[nH]3)nnc2SCC(=O)Nc2cccc(C(F)(F)F)c2)c1      inactive
